Where do these numbers come from? They come from the METLIN SMRT retention time set (Domingo-Almenara et al. 2019).

- procedure_text: gradient 5% acetonitrile 3 min, to 50% in 2 min, to 85% in 15 min, held 3 min, 100 µL/min
- particulars: column: Zorbax Extend-C18 2.1 x 50 mm; eluents: water / acetonitrile, 0.1% formic acid
Please respond with reported RP-LC retention time for every item in the list.
One number for each entry, in s.

[
  {
    "compound": "Cc1ccc2c(Nc3ccc(Cl)c(F)c3)c(C(=O)N3CCSCC3)cnc2n1",
    "value_unit": "s",
    "RP-LC retention time": 651
  },
  {
    "compound": "Cn1c(=O)c2c(ncn2CC(=O)Nc2cccc(N3CCCS3(=O)=O)c2)n(C)c1=O",
    "value_unit": "s",
    "RP-LC retention time": 595
  },
  {
    "compound": "CC1(C)CC(=O)c2cn(-c3ccccc3)c(=O)c(C(=O)Nc3ccc(F)cc3F)c2C1",
    "value_unit": "s",
    "RP-LC retention time": 1090
  }
]

I'm hoping you can list RP-LC retention time for every compound here, please.
1. Cc1ccsc1-c1nc(-c2ccc3ncn(C)c3c2)no1
2. Cc1ccc(CNc2nnc(-c3nc(C4CC4)no3)c3ccccc23)cc1
3. O=C(Nc1ccccc1)C1CC(=O)N(c2ccc3c(c2)CCN3C(=O)C2CC2)C1 (stereo not given)

Result ::
[732, 958, 743]

----------
- procedure_text: gradient 5% acetonitrile 3 min, to 50% in 2 min, to 85% in 15 min, held 3 min, 100 µL/min
- particulars: column: Zorbax Extend-C18 2.1 x 50 mm; eluents: water / acetonitrile, 0.1% formic acid
reported_metric: RP-LC retention time (s)
Numbers only, in s.

[
  {
    "molecule": "Cc1cccc(NS(=O)(=O)c2cn(C(C)C)c3ncccc23)c1C",
    "RP-LC retention time [s]": 946
  },
  {
    "molecule": "CC(=O)OCOC(c1ccc2ccccc2c1)P(=O)(OCOC(C)=O)OCOC(C)=O (centres undefined)",
    "RP-LC retention time [s]": 854
  },
  {
    "molecule": "Cc1cnc(C2CN(Cc3cccc(OC(F)(F)F)c3)C2)n1CC1CC1",
    "RP-LC retention time [s]": 594
  },
  {
    "molecule": "CNC(=O)CCc1nc2ccccc2n(CC(=O)NCCc2ccc(S(N)(=O)=O)cc2)c1=O",
    "RP-LC retention time [s]": 612
  },
  {
    "molecule": "CC1=C2C3OC(=O)C(C)C3CCC2(C)C=C(Cl)C1=O (centres undefined)",
    "RP-LC retention time [s]": 914
  }
]

Batch request: RP-LC retention time per item, same order as input.
1. O=C(c1cccs1)N1CCN(c2ccc(=O)n(-c3ccc(Cl)cc3)n2)CC1
2. C#CCSc1nc2ccccc2c2nc(-c3ccncc3)nn12
3. Cc1ccccc1C(=O)N1CCN(S(=O)(=O)c2cc3c4c(c2)CCC(=O)N4CCC3)CC1
4. COc1cc(C(=O)Nc2nc(-c3ccc4c(c3)NC(=O)C(C)O4)cs2)cc(OC)c1OC (centres undefined)
5. CCOc1ccc(NC(=O)Cn2c(C)nc3c(sc4nc(-c5ccccc5)ccc43)c2=O)cc1
6. c1ccc(Nc2c(-c3ccccc3)nc3cnccn23)cc1
7. CC(Oc1ccccc1)C(=O)Nc1ccc2c(c1)Sc1ncccc1C(=O)N2C(C)C (centres undefined)

Result ::
1: 834; 2: 977; 3: 785; 4: 903; 5: 1070; 6: 826; 7: 930

----------
- procedure_text: gradient 5% acetonitrile 3 min, to 50% in 2 min, to 85% in 15 min, held 3 min, 100 µL/min
- particulars: column: Zorbax Extend-C18 2.1 x 50 mm; eluents: water / acetonitrile, 0.1% formic acid
reported_metric: RP-LC retention time (s)
Numbers only, in s.

Recorded RP-LC retention time, per entry:
[
  {
    "compound": "Cc1ccc(S(=O)(=O)c2cnc(N3CCN(c4ccccc4F)CC3)nc2N)cc1C",
    "RP-LC retention time, s": 1200
  },
  {
    "compound": "Cc1cccc(CN2N=C(C(=O)N3CCC(C)CC3)S(=O)(=O)c3ccccc32)c1",
    "RP-LC retention time, s": 1090
  },
  {
    "compound": "CCOC(=O)N1CCN(C(=O)Cn2ccc3ccccc32)CC1",
    "RP-LC retention time, s": 731
  },
  {
    "compound": "CCc1cccc(NS(=O)(=O)c2c(C)sc(C)c2-c2cc(C)[nH]n2)c1",
    "RP-LC retention time, s": 1130
  },
  {
    "compound": "CCC(CO)NCc1ccc(-c2ccc(F)cc2)o1 (stereo not given)",
    "RP-LC retention time, s": 637
  }
]

// batch mode: one RP-LC retention time value per listed entry
1. CCOc1ccc(CCNC(=O)c2nc(N3CCCC3)c3ccccc3n2)cc1OCC
2. Cc1cc(C)cc(C(=O)N2CCC(c3noc(N)c3C(C)C)CC2)c1
3. Cc1ccc(NC(=O)C2CCN(S(C)(=O)=O)c3cc(Cl)ccc3O2)cc1 (stereo not given)
4. O=c1cccnn1CCCNS(=O)(=O)c1ccc2c(c1)OCCO2
5. CC(C)c1ccc(N2C(=O)C3N=NN(Cc4nc(-c5cccc(C(F)(F)F)c5)no4)C3C2=O)cc1 (stereo not given)
6. O=C(Nc1ccc(-c2nc(-c3ccc(F)cc3)no2)cc1)c1cccs1
7. Cc1cc(-c2nnc(C3CCC3)o2)c(C)n1CC(=O)Nc1cccc(Cl)c1

Result ::
[732, 829, 1010, 645, 1260, 1170, 960]

----------
- procedure_text: gradient 5% acetonitrile 3 min, to 50% in 2 min, to 85% in 15 min, held 3 min, 100 µL/min
- particulars: column: Zorbax Extend-C18 2.1 x 50 mm; eluents: water / acetonitrile, 0.1% formic acid
Kind request: treat 700 s as inclusive, so RP-LC retention time at 700 s or higher is met, anything lower is not met.

Please review the following examples before continuing.
[
  {
    "smiles_str": "Cc1cc(-c2nnc(-c3ccccc3)o2)c(C)n1CC(=O)NCc1ccccc1",
    "class_assignment": "met"
  },
  {
    "smiles_str": "NC(=O)C1CCN(c2ncnc3c2oc2ccccc23)CC1",
    "class_assignment": "not met"
  }
]

Okay, now this molecule:
Query :: Check the entry Cc1cc2nc(N3CCOCC3)n(CC(=O)Nc3cc(F)cc(F)c3)c(=O)c2n1C : does RP-LC retention time equal or exceed 700 s?
Result :: not met

----------
- procedure_text: gradient 5% acetonitrile 3 min, to 50% in 2 min, to 85% in 15 min, held 3 min, 100 µL/min
- particulars: column: Zorbax Extend-C18 2.1 x 50 mm; eluents: water / acetonitrile, 0.1% formic acid
For each entry below, report its RP-LC retention time value.
Answers are plain numbers, in s.

Reference set (5 entries):
[
  {
    "compound": "O=c1c2scc(-c3ccc(Br)cc3)c2ncn1Cc1cccnc1",
    "value_unit": "s",
    "RP-LC retention time": 775
  },
  {
    "compound": "COc1ccc(-c2noc(-c3nc(C4CC4)no3)n2)cc1",
    "value_unit": "s",
    "RP-LC retention time": 1090
  },
  {
    "compound": "CC1CCCN(C(=O)c2ccc3ncnc(N4CCCC4)c3c2)C1 (centres undefined)",
    "value_unit": "s",
    "RP-LC retention time": 640
  },
  {
    "compound": "Cc1ccc(CNc2c(-c3ccc(C(C)C)cc3)nc3ncccn23)cc1",
    "value_unit": "s",
    "RP-LC retention time": 907
  },
  {
    "compound": "Cn1cc(C(=O)NCc2cccc(C(F)(F)F)c2)c2cccnc21",
    "value_unit": "s",
    "RP-LC retention time": 818
  }
]

I need RP-LC retention time for every entry listed below, if you could help.
1. CC(C)c1cc(N2CCN(C(=O)C3CC3)CC2)nc2nncn12
2. COc1ccccc1NC(=O)C1CCN(S(=O)(=O)c2cc(C(=O)N(C)C)cs2)CC1

Result ::
1. 586
2. 789

Respectfully, I request RP-LC retention time for each entry included below.
1. CCOC(=O)c1c(C)[nH]c(C(=O)N2CCC(CC(=O)NCc3ccc(F)cc3)CC2)c1C
2. CC(=O)N1C[C@@H]2CCCN3CCC[C@@H]([C@H]23)[C@H]1CCCC(=O)NCCC(C)C
3. CCN(CC)c1ccc(NC(=O)C2Cc3cc(S(=O)(=O)N4CCCC4)ccc3N2C(C)=O)c(C)c1 (centres undefined)
4. Cc1ncoc1C(=O)N[C@@H]1CN(S(C)(=O)=O)C[C@H]1CN(C)C
5. O=C(NC1CCCc2c1[nH]c1ccc(Cl)cc21)c1ccncc1 (centres undefined)
6. Cc1cc(C(=O)N2CCCCC2)c2c(=O)n(CC(=O)N(C)c3ccccc3)c(=O)n(C)c2n1
7. CCn1cc(C(=O)N[C@@H](Cc2ccccc2)C(=O)O)c(=O)c2cc3c(cc21)OCO3
8. Cc1oc2ccn(Cc3ccccc3F)c(=O)c2c1C(=O)NCc1ccc(F)cc1

Result ::
[780, 583, 676, 516, 859, 812, 728, 1090]

Please state RP-LC retention time for every compound in the list that follows.
1. Cc1noc(C)c1CNC(=O)Cc1ccccc1Cl
2. Cc1nc(Nc2ccccn2)sc1C(=O)N1CCN(C2CCCCC2)CC1
3. Cc1ccc2ncn(C3CCN(S(=O)(=O)c4ccccc4C)CC3)c(=O)c2c1
4. Cc1cc(CNC(=O)c2cnccn2)no1

Result ::
[725, 597, 929, 577]

Quick batch: RP-LC retention time for everything below.
1. CC(C)NC(=O)CCc1c(-c2ccc(Cl)cc2)nc2ccccn12
2. CCc1ccc(Nc2nc(C(=O)NCc3ccc(C)o3)nc3ccccc23)cc1
3. O=C(NC12CC3CC(CC(C3)C1)C2)C1CCN(S(=O)(=O)c2cccs2)CC1
4. Cc1ccc(NC(=O)N2CCc3nc[nH]c3C2)cc1C
5. CSc1ccc(CCNC(=O)c2nc(N3CCOCC3)c3ccccc3n2)cc1
6. CC(=O)N1CCC(c2nc(C)c(C(=O)O)s2)CC1

Result ::
1. 622
2. 923
3. 1070
4. 606
5. 721
6. 588
